Would you mind telling me the reported abundance fitness of each entry?
B1: Formin-binding protein 4, residues 200 to 261; numbered along this chain, Q8N3X1 (parent)
chain: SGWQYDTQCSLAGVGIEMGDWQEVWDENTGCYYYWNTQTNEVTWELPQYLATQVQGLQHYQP

- Variants of: B1
- procedure.details: abundance fitness (aPCA) (normalised: wild type 0, dead -1); higher = more abundant; growth selection in yeast, the domain comes from the species named
- condition.label: Homo sapiens
Answers are plain numbers.

In [3]: df
Out[3]:
   mutation_list  measurement
0           Q61A        0.115
1           W44P       -0.218
2           P47A       -0.842

Each of the following entries comes with a recorded value; kindly state abundance fitness for each.
1. S10C
2. Y33I
3. P62F

1. -0.332
2. -0.566
3. -0.103

Each of the following entries comes with a recorded value; kindly state abundance fitness for each.
1. V54R
2. P62T
3. L50I
4. T7N

1: -0.625; 2: -0.009; 3: -0.214; 4: 0.124

Each of the following entries comes with a recorded value; kindly state abundance fitness for each.
1. W3P
2. Y60W
3. P62S
4. H59Y

-0.158
-0.068
0.045
-0.296
